Target: butyryl cholinesterase (BChE) (Homo sapiens)
Sequence (P06276 29-602, species assumed): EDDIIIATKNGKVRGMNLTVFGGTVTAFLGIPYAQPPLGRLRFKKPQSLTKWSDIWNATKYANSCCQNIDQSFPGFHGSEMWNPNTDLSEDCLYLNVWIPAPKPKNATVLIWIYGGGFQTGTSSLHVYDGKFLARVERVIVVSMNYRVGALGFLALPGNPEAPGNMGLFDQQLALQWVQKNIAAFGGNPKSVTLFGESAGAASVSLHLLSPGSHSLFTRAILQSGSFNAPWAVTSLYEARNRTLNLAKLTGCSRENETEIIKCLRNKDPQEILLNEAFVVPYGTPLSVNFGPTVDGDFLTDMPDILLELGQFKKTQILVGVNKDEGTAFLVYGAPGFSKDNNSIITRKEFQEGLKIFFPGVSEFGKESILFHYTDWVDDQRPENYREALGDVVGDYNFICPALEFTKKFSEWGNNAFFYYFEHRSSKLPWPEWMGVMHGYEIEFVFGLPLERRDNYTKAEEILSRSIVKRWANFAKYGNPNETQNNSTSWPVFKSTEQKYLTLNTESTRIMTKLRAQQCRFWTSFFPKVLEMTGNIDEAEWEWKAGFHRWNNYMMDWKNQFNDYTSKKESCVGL
Assay: butyryl cholinesterase inhibition assay
Type: biochemical
Conditions: read-out: BChE inhibition (%) at 0.5 mM
Here the recorded inhibition at 500 µM is given for each entry.
Put down the number, then write its unit next to it.

Below: 8 molecules and their reported inhibition at 500 µM.
CCc1ccccc1NC(=O)CSc1nnc(C2CCCN(S(=O)(=O)c3ccccc3)C2)o1 (stereo not drawn) :: 44.2%
O=C(CSc1nnc(C2CCCN(S(=O)(=O)c3ccccc3)C2)o1)NCCc1ccccc1 (stereo not drawn) :: 97.9%
Cc1cccc([N+](=O)[O-])c1NC(=O)CSc1nnc(C2CCCN(S(=O)(=O)c3ccccc3)C2)o1 (stereo not drawn) :: 67.2%
Cc1ccc(NC(=O)CSc2nnc(C3CCCN(S(=O)(=O)c4ccccc4)C3)o2)cc1 (stereo not drawn) :: 46.8%
COc1ccccc1NC(=O)CSc1nnc(C2CCCN(S(=O)(=O)c3ccccc3)C2)o1 (stereo not drawn) :: 36.3%
Cc1ccc(NC(=O)CSc2nnc(C3CCCN(S(=O)(=O)c4ccccc4)C3)o2)c(C)c1 (stereo not drawn) :: 76.5%
CCOc1ccccc1NC(=O)CSc1nnc(C2CCCN(S(=O)(=O)c3ccccc3)C2)o1 (stereo not drawn) :: 43.7%
COC(=O)c1ccccc1NC(=O)CSc1nnc(C2CCCN(S(=O)(=O)c3ccccc3)C2)o1 (stereo not drawn) :: 35.5%

inhibition at 500 µM lookup needed for Cc1cccc(C)c1NC(=O)CSc1nnc(C2CCCN(S(=O)(=O)c3ccccc3)C2)o1 (stereo not drawn) , thanks.
48.5%
